# study target: EZH2 (Homo sapiens)
# Sequence (Q15910 whole entry, species assumed): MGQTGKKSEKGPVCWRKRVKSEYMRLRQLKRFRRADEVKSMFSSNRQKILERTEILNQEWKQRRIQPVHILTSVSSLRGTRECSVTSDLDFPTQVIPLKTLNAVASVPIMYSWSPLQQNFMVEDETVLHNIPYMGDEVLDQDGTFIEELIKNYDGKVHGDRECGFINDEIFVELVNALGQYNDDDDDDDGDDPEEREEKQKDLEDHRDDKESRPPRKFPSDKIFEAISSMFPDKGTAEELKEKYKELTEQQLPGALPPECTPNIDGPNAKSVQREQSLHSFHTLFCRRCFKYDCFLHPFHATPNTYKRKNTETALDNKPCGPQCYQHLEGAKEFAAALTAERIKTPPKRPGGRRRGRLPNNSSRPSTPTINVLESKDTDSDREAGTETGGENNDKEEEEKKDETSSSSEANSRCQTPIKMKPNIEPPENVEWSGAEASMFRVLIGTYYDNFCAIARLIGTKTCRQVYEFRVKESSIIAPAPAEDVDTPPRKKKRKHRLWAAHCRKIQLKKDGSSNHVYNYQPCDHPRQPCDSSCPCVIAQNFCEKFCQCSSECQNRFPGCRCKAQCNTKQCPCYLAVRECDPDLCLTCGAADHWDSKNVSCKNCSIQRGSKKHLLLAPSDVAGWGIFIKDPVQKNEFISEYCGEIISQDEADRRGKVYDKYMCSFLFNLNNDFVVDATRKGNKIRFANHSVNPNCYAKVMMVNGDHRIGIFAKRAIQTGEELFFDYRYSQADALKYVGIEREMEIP
# Sequence (O75530 whole entry partner, species assumed): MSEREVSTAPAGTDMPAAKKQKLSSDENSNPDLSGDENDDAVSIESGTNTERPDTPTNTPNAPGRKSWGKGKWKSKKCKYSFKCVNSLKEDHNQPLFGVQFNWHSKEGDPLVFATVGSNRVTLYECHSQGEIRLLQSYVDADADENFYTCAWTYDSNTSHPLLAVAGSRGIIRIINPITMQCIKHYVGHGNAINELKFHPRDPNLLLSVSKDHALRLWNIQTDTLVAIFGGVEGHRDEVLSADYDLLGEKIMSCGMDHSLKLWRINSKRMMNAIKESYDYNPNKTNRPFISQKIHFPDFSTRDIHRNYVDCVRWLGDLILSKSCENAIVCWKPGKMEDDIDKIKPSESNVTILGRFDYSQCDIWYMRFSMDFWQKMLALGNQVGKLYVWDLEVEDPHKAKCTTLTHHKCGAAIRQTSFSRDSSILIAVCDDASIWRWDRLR
# Sequence (Q15022 whole entry partner, species assumed): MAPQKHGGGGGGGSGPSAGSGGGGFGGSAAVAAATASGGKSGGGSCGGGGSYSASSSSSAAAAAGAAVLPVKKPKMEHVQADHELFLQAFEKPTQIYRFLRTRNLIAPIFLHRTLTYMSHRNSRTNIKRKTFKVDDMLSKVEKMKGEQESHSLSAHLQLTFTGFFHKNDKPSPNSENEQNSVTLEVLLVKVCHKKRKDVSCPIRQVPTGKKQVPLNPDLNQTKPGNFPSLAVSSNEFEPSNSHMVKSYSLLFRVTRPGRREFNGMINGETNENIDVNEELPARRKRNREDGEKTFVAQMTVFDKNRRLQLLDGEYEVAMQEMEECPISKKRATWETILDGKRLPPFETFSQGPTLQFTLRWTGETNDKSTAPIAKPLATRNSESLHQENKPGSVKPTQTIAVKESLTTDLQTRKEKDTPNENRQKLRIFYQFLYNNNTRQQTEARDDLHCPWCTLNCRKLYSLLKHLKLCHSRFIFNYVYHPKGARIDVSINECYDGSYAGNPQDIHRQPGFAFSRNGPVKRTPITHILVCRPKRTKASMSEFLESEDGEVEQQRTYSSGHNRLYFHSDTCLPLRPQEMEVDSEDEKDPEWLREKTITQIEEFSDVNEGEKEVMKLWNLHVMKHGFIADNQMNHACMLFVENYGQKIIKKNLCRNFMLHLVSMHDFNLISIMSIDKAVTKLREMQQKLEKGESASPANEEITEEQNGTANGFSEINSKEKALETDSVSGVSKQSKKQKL
# experimental details: AlphaLISA enzyme activity inhibition, EZH2
# Format: biochemical
# condition: 5nM test substance
property label: inhibition at 0.005 µM (%)

molecule: CSc1cc(C)[nH]c(=O)c1CNC(=O)c1cc(-c2ccc(N3CCOCC3)nc2)c2c(c1C)OC(C)(C1CCN(CC(F)F)CC1)O2 (single isomer, unassigned) [Compound 64]
inhibition at 0.005 µM, %: 99.2
//
molecule: CCN1CCC(C2(C)Oc3c(-c4ccc(N5CCOCC5)nc4)cc(C(=O)NCc4c(SC)cc(C)[nH]c4=O)c(C)c3O2)CC1 (single isomer, unassigned) [Compound 66]
inhibition at 0.005 µM, %: 99.3
//
molecule: CSc1cc(C)[nH]c(=O)c1CNC(=O)c1cc(-c2cnc(N3CCCCC3)nc2)c2c(c1C)OC(C)(C1CCN(CC(F)(F)F)CC1)O2 (stereo not shown) [Compound 39]
inhibition at 0.005 µM, %: 62
//
molecule: COCCN(C)[C@H]1CC[C@H](C2(C)Oc3c(-c4ccc(OC)nc4)cc(C(=O)NCc4c(SC)cc(C)[nH]c4=O)c(C)c3O2)CC1 (relative stereo) [Compound 28]
inhibition at 0.005 µM, %: 99.4
//
molecule: CCN1CCC(C2(C)Oc3c(-c4cnc(N5CCOCC5)nc4)cc(C(=O)NCc4c(SC)cc(C)[nH]c4=O)c(C)c3O2)CC1 (single isomer, unassigned) [Compound 73]
inhibition at 0.005 µM, %: 99.2
//
molecule: CSc1cc(C)[nH]c(=O)c1CNC(=O)c1cc(-c2ccoc2)c2c(c1C)OC(C)([C@H]1CC[C@H](N(C)C)CC1)O2 (relative stereo) [Compound 18]
inhibition at 0.005 µM, %: 99.8
//
molecule: COc1ccc(-c2cc(C(=O)NCc3c(SC)cc(C)[nH]c3=O)c(C)c3c2OC(C)(C2CCN(CC(F)(F)F)CC2)O3)cn1 (stereo not shown) [Compound 36]
inhibition at 0.005 µM, %: 83.1
//
molecule: CSc1cc(C)[nH]c(=O)c1CNC(=O)c1cc(-c2ccc(N3C[C@@H](C)O[C@@H](C)C3)nc2)c2c(c1C)OC(C)([C@H]1CC[C@H](N(C)C3CCCCC3)CC1)O2 (stereo partly shown) [Compound 114]
inhibition at 0.005 µM, %: 45.8

(1) CSc1cc(C)[nH]c(=O)c1CNC(=O)c1cc(-c2ccc3occc3c2)c2c(c1C)OC(C)(C1CCN(CC(F)(F)F)CC1)O2 (stereo not shown) [Compound 96]
(2) CSc1cc(C)[nH]c(=O)c1CNC(=O)c1cc(-c2ccc(F)cc2)c2c(c1C)OC(C)([C@H]1CC[C@H](N(C)C)CC1)O2 (relative stereo) [Compound 10]
Identify the entry with the larger inhibition at 0.005 µM. Options: 1 and 2 Give the chosen item's label as your response. 2

====

# System: Lovo cells
# experimental details: Cancer cell proliferation inhibition (Cell Counting Kit-8), colorectal cancer cell line
# Format: cell-based
# condition: Homo sapiens, LoVo, 264 h, 1000 nM, cultured seven to 11 days; read-out: % inhibition rate LoVo
property label: inhibition at 1 µM

Looking for the measured inhibition at 1 µM of CSc1cc(C)[nH]c(=O)c1CNC(=O)c1cc(-c2ccc(CN3CCOCC3)cc2)c2c(c1C)OC(C)([C@H]1CC[C@H](N(C)C)CC1)O2 (relative stereo) [Compound 6] , can you help? 30 to 70%

Looking for the measured inhibition at 1 µM of CSc1cc(C)[nH]c(=O)c1CNC(=O)c1cc(-c2ccsc2)c2c(c1C)OC(C)([C@H]1CC[C@H](N(C)C)CC1)O2 (relative stereo) [Compound 11] , can you help? ≥ 70%

Looking for the measured inhibition at 1 µM of CSc1cc(C)[nH]c(=O)c1CNC(=O)c1cc(-c2c(C)noc2C)c2c(c1C)OC(C)([C@H]1CC[C@H](N(C)C)CC1)O2 (relative stereo) [Compound 13] , can you help? 30 to 70%

Looking for the measured inhibition at 1 µM of CSc1cc(C)[nH]c(=O)c1CNC(=O)c1cc(-c2ccc(N3C[C@@H](C)O[C@@H](C)C3)nc2)c2c(c1C)OC(C)(C1CCN(C(=O)C(F)(F)F)CC1)O2 (single isomer, unassigned) [Compound 59] , can you help? ≥ 70%

Looking for the measured inhibition at 1 µM of CSc1cc(C)[nH]c(=O)c1CNC(=O)c1cc(-c2ccc(N3CCCCC3)cc2)c2c(c1C)OC(C)(C1CCN(CC(F)(F)F)CC1)O2 (centres unmarked) [Compound 90] , can you help? ≥ 70%
